Parameter: Bmax. Scope: all listed entries.
target: Folate receptor-alpha (FOLR1) (human) (UniProt P15328); experiment: cell binding, FOLRα-expressing KB cells; through the folate moiety
Sequence (P15328 25-234): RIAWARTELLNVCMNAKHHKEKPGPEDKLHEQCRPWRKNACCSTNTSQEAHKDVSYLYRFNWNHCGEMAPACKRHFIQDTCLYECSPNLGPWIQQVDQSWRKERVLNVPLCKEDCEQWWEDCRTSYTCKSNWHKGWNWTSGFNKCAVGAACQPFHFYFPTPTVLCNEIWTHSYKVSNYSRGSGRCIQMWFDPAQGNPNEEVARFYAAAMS
quantityKind: Bmax

{"columns": ["binder", "quantityKind", "reported"],
 "data": [
  ["Fab1-HK129-LL157-BiFolate-Bi5KPEG (Fab, V domains shown, pAF at LL157 (Kabat) conjugated to a bifunctional linker carrying folate and 5K PEG (oxime); pAF at HK129 (Kabat) conjugated to a bifunctional linker carrying folate and 5K PEG (oxime), From E. coli; carries two folates and two 5K PEG; also called Fab1-HK129-LL157-Bi5KPEG-BiFolate) VH: EVQLVESGGGLVQPGGSLRLSCAASGFTFNTYAMNWVRQAPGKGLEWVARIRSKYNNYATYYADSVKDRFTISRDDSKNILYLQMNSLKTEDTAVYYCVRHGNFGNSYVSWFAYWGQGTLVTVSS VL: QAVVTQEPSLTVSPGGTVTLTCRSSTGAVTTSNYANWVQQKPGQAPRGLIGGTNKRAPGTPARFSGSLLGGKAALTLSGAQPEDEAEYYCALWYSNLWVFGGGTKLTVLG", "Bmax", 83100],
  ["Fab1-HK129-5KPEG-Folate (Fab, V domains shown, pAF at HK129 (Kabat) conjugated to a bifunctional linker carrying folate and a linear 5K PEG (oxime), From E. coli; also called Fab1-5KPEG-Folate) VH: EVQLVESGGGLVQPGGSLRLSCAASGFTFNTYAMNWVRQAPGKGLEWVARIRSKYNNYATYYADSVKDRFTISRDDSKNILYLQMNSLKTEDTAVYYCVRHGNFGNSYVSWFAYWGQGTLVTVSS VL: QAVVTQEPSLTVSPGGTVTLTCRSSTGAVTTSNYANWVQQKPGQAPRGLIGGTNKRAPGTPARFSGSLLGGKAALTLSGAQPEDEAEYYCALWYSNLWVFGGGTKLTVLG", "Bmax", 134000],
  ["Fab1-HK129-Folate (Fab, V domains shown, pAF at HK129 (Kabat) conjugated to folate (oxime), From E. coli; also called Folate lead; parent control) VH: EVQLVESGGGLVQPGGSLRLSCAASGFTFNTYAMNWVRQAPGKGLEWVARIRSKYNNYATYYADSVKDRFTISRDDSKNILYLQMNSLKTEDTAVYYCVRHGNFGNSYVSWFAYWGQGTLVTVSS VL: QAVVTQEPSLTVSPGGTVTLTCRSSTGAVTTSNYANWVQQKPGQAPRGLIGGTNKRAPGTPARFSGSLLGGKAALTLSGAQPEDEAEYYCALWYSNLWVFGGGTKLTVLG", "Bmax", 101000],
  ["Fab1-HK129-LL157-BiFolate (Fab, V domains shown, pAF at LL157 (Kabat) conjugated to folate (oxime); pAF at HK129 (Kabat) conjugated to folate (oxime), From E. coli; carries two folates) VH: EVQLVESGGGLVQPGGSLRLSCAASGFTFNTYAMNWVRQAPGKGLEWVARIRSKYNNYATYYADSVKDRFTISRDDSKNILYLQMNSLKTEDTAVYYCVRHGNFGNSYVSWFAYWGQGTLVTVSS VL: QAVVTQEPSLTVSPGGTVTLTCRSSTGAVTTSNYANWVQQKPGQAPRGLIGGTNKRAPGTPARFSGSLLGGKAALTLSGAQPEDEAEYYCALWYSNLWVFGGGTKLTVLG", "Bmax", 74400]
]}
